- protocol description: protein stability index of a GFP-peptide fusion (GPS, HEK-293T) (PSI 1-6); higher = more stable;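 also: 24-mer peptide tiles fused after GFP, lentivirally expressed, FACS-sorted into six equal bins by GFP/DsRed ratio, decoded by Illumina sequencing, PSI is the read-weighted mean bin number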
- condition label: treatment: DMSO; c terminus: a fixed tail appended
observable: protein stability index

sequence record: GLPPSGSWQDLKDHMREAGDVCYA [SRSF1]
result value: 3.65
//
sequence record: SFELLVRFFACPSKATFSRNIMNL [KCNA3]
result value: 3.16
//
sequence record: CSEDWVGYQRKCYFISTVKRSWTS [CD69]
result value: 2.36
//
sequence record: VQAWPFTCLPLGVLMKGQHLHLET [PRAME]
result value: 2.58
//
sequence record: AATQVFFALGLGFGGVIAFSSYNK [SLC6A17]
result value: 2.64
//
sequence record: DAVGMLGIEEVTYENCLQALADVE [NLN]
result value: 4.25
//
sequence record: MMVNLRACSAPGGLVPSEKPPMMP [C2CD2L]
result value: 2.14
//
sequence record: KRNFISSKSKQPAGHRRPAGGIRE [C22orf31]
result value: 4.07
//
sequence record: QMLRKTVKDEAHQAQKDPKKDRPL [PPP2R5C]
result value: 4.89
//
sequence record: YRRHVLGIVLQGPALCFAAAIFSL [TMEM175]
result value: 2.93
//
sequence record: APSIEQRLQEVRESIRRAQVSQVK [FCHSD1]
result value: 4.27
//
sequence record: ITWFKDFLPVDTSNNNGRIKQLRS [PTPRD]
result value: 2.47
//
sequence record: RMKKNGMEMTRPTPPHLTSAMAEN [NOL4L]
result value: 4.41
//
sequence record: RGKKLMVLTEPILIETYTGLMSFI [TPRG1]
result value: 2.95
//
sequence record: PDDSTSEDGIHTLTCALMLLNTDL [PSD2]
result value: 3.12
//
sequence record: QAASRIIRNEQFAIRRFQSMPVRL [CDC25B]
result value: 2.75
//
sequence record: SQEEAQGLPSSELDAVENQLKWAS [ZNF24]
result value: 5.32
//
sequence record: LWTSFIQSVSYSKLLSVIVWMLML [P2RY14]
result value: 3.32
//
sequence record: TIEERVNILFDFVKKKKEEGVIDS [EIF5]
result value: 3.68
//
sequence record: PEEPAASTDPNIVRKKERGREEKC [TAF7L]
result value: 5.28
//
sequence record: RYCMQLSQIQGLIGSVEEQLAQLR [KRT16]
result value: 2.28
//
sequence record: IHHLVLTASDGGDPLRSGTVLVSV [PCDHGA10]
result value: 2.97
//
sequence record: HTLRASMRELGLLIFFLFIGVILF [KCNA4]
result value: 2.86
//
sequence record: LSAASPDTGHDSDKSDQSLPNASA [TRAF3IP2]
result value: 5.53
//
sequence record: DNHNLIERRRRFNINDRIKELGTL [TFE3]
result value: 3.33
//
sequence record: CEENEQSLPPPAGLNSSWVELPMN [BNIP3L]
result value: 4.65
//
sequence record: KDIDMFSMCEHHLVPFVGKVHIGY [GCH1]
result value: 2.34

---

Readings of protein stability index for the listed sequences
- protocol description: protein stability index of a GFP-peptide fusion (GPS, HEK-293T) (PSI 1-6); higher = more stable
- condition label: treatment: DMSO; c terminus: a fixed tail appended
observable: protein stability index

sequence record: YQVHDYLRSKLCSLYENDCIFDKF [PPP2R2B]
result value: 2.58

sequence record: DILMEFGHLFPPPTPIFAGGANDR [WSB1]
result value: 2.41

sequence record: LRAELTKVEEEIVTLRQVLAAKER [TPD52L2]
result value: 2.93

sequence record: CPVEYNNDTNSFTVDCEPSDLFRL [CDS2]
result value: 3.94

sequence record: AAAPVAEVPTAAGALTPTPAPTTT [CLPTM1]
result value: 5.3

sequence record: HVTCVDQSEHTMVLRCQLSAEEVR [C2CD2L]
result value: 3.73

sequence record: CVKLCTGHEYAAKIINTKKLSARD [CAMK2B]
result value: 3.14

sequence record: RGIFVVRGENVVLLGEIDLEKESD [LSM1]
result value: 2.37

sequence record: ESDVKHRTRDYKKTSLAPYVKVFE [PRIM1]
result value: 3.39

sequence record: FDPIVLLPCDLPKVVSRAENLSVP [LPCAT4]
result value: 2.8

sequence record: HFAAASTHGALCLELLVNNGADVN [ANKRD44]
result value: 2.73

sequence record: RRRVPVRNLGKVVHYAKVQLRFQH [PLEKHN1]
result value: 2.35

sequence record: DRHTKFFEEPEDPSNRSFFSEIIS [PPP2R2B]
result value: 3.38

---

- protocol description: protein stability index of a GFP-peptide fusion (GPS, HEK-293T) (PSI 1-6); higher = more stable
- condition label: treatment: DMSO; c terminus: a fixed tail appended
Class 1 (yes): protein stability index at least 3. Class 0 (no): protein stability index below 3.

sequence record: KRFEKQLTQIDGTLSTIEFQREAL [CHMP4C]
assigned category: 1 (yes)

sequence record: QKKIGAYDQQIWEKSIEQTQIKGL [PHTF1]
assigned category: 1 (yes)

sequence record: FSLNPRSGSLITAGRIDREELCAQ [PCDHGA10]
assigned category: 1 (yes)

sequence record: AQYSVTGSAVARAVCKATTHEVMG [SNAP91]
assigned category: 1 (yes)

sequence record: STSFMSSSSSSSSWLTRRAIRPEN [EMD]
assigned category: 1 (yes)

sequence record: VSMLGYPFILPDMVGGNAVPQRTA [MYORG]
assigned category: 0 (no)

sequence record: DVTDEHGEREPFAETDEHTGANTK [FAM9B]
assigned category: 1 (yes)

sequence record: AIHQDPPDECGKTEFTRFLCSSPL [ATE1]
assigned category: 1 (yes)

sequence record: TRKHHCRRCGKCFCDRCCSQKVPL [ZFYVE21]
assigned category: 1 (yes)

sequence record: SSSLAQHQRKHAGEKPFECRQRLI [ZNF8]
assigned category: 1 (yes)

sequence record: SLEIEEKINKIRWLPQQNAAYFLL [PPP2R2B]
assigned category: 0 (no)

sequence record: GVPGQPLNFKAEPESETSILLSWT [PTPRD]
assigned category: 0 (no)

sequence record: LKYENDYPSVILRDPLQTDTLQND [ETS1]
assigned category: 1 (yes)

sequence record: CTRFTDEYQLFEELGKGAFSVVRR [CAMK2D]
assigned category: 0 (no)

sequence record: TRAPQRAHEVLQELRDISSMAMEY [FBXO28]
assigned category: 1 (yes)

sequence record: TPTSPECDYSQYFKTIEELRDKIM [KRT15]
assigned category: 1 (yes)

sequence record: YQLGEEALLKFREDEGFVREEEDR [KCNA4]
assigned category: 1 (yes)

sequence record: IAIPEWFLSENATVAAETRAVIAW [CPXM2]
assigned category: 0 (no)

sequence record: FSGTDWMLEKMDLKEFDLDALLGI [ATF4]
assigned category: 0 (no)

sequence record: SASEMKQLIDNILEESDIDRDGTI [CIB1]
assigned category: 1 (yes)

sequence record: PVPATPILQLEECCTHNNSATLSW [TRIM9]
assigned category: 1 (yes)

sequence record: VQQWLQKGTPASKLILGMPTYGRS [CHIT1]
assigned category: 0 (no)

sequence record: MGPAPRARPWTRDSASLPRKPSVP [RASAL3]
assigned category: 1 (yes)

sequence record: VRGEDSGRKPERRRLKTTRLKEYT [DAPK3]
assigned category: 1 (yes)

sequence record: DHQDSDEFCRNTLCAPEVISLINT [FAF2]
assigned category: 1 (yes)

sequence record: AMKSVHENMDLNKIDDLMQEITEQ [CHMP4C]
assigned category: 1 (yes)

sequence record: YHCPGSPDHQVPYGHDYPRAAYQQ [TRAF3IP2]
assigned category: 1 (yes)

sequence record: PFTKKRVGVDRAFPLKPMVHRKSC [ZC2HC1C]
assigned category: 1 (yes)

sequence record: ELQGDFSVPDVPKSMAWCENSICV [VPS39]
assigned category: 0 (no)

sequence record: KTLAVKNEEIQSFIYSLKQMLLNV [FSD1]
assigned category: 0 (no)

sequence record: PPKWQIGEQEFEALMRMLDNLGYR [ADD1]
assigned category: 0 (no)

sequence record: HMEEEVEDFLLKKPIVPTDGKRVI [CDC25A]
assigned category: 1 (yes)

sequence record: TLHNLSHHREGLLAIFKSGGIPAL [CTNNB1]
assigned category: 0 (no)

sequence record: PNGKHSTNFVSRYDPRFNSWIQLP [KLHL14]
assigned category: 0 (no)

sequence record: SGTPKRYSLELGKAIKQKLWEALC [C22orf31]
assigned category: 0 (no)

sequence record: NGVLEPLYLCPNGARCATWFQDPT [SLC25A39]
assigned category: 0 (no)

sequence record: SGRKNSTSKDLVTLGASSLREERG [C6orf223]
assigned category: 1 (yes)

sequence record: LVFQRRMDGQTDFWRDWEDYAHGF [TNXB]
assigned category: 0 (no)

sequence record: PELTITSLFSPVTEDSPLGTVVAL [PCDHGA10]
assigned category: 0 (no)

sequence record: RMQYAPDLMKRLRFALIPAPELVE [KLHL14]
assigned category: 0 (no)

sequence record: PTWWPLPTQVPAAEDYLTWKEWGF [SPAG8]
assigned category: 0 (no)

sequence record: EAYLASLRADQEKERKKREERERK [FAF2]
assigned category: 1 (yes)

sequence record: SGGVASFICQATGDPRPKIVWNKK [PTPRD]
assigned category: 1 (yes)

sequence record: NLLRDDRVLQNLLTIEERYLPQCS [CCND2]
assigned category: 0 (no)

sequence record: GAGDWREKEAKDLTELVQRRITYL [FUT8]
assigned category: 1 (yes)

sequence record: LATSPITVGDLGIVRRRSRDVPES [YJU2B]
assigned category: 1 (yes)

sequence record: MGGPFSYVYFFCTVPEILVHNIVI [TMEM106C]
assigned category: 1 (yes)

sequence record: KESLCISITVSKVDKDQPSILNSC [FBXO34]
assigned category: 0 (no)

sequence record: ASSWKKQVSHDFLETRFKIQQLLE [FBXO34]
assigned category: 0 (no)

sequence record: FTFLGKKCVTMSSAVVQLYAADRN [WASL]
assigned category: 0 (no)
